TARGET: recombinant human Estrogen Receptor alpha ligand binding domain (ER alpha-LBD (GST)) (Homo sapiens (Human), UniProt P03372)
Sequence (P03372 307-554): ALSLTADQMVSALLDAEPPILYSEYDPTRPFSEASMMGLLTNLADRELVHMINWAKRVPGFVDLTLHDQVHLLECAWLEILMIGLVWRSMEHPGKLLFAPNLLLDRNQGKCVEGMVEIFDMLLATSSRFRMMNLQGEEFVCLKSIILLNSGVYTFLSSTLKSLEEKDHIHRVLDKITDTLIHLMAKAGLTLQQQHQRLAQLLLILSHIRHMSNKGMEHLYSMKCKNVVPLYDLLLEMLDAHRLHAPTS
PROCEDURE_TEXT: ERα binding assay (LanthaScreen TR-FRET competition)
CONDITION_SET: TR-FRET, displacement of Fluormone ES2
ASSAY_ENDPOINT: log10(IC50) (log10 of the value in nM)

COMPOUND_STRUCTURE	log10(IC50)
C[C@@H]1Cc2c(ccc3[nH]nc(F)c23)[C@@H](c2ccc(NC3CN(CCCF)C3)cn2)N1CC(F)(F)CO	-0.06
COc1cc(NC2CN(CCCF)C2)ccc1[C@@H]1c2ccc3[nH]ncc3c2C[C@@H](C)N1CC1(F)CC1	0.94
C[C@@H]1Cc2c(ccc3[nH]ncc23)[C@@H](c2ncc(NC3CN(CCCF)C3)cc2F)N1CC(F)F	0.56
C[C@@H]1Cc2c(ccc3[nH]nc(F)c23)[C@@H](c2ccc(NC3CN(CCCF)C3)c(F)n2)N1CC(F)(F)CO	0.00
C[C@@H]1Cc2c(ccc3[nH]ncc23)[C@@H](c2c(F)cc(NC3CN(CCCF)C3)cc2F)N1CC(F)(F)CO	0.34
COc1cc(OC2CN(CCCF)C2)ccc1[C@@H]1c2ccc3[nH]ncc3c2C[C@@H](C)N1CC(F)F	0.76
COc1cc(NC2CN(CCCF)C2)ccc1[C@@H]1c2ccc3[nH]ncc3c2C[C@@H](C)N1CC(F)(F)F	0.76
COc1cc(OC2CN(CCCF)C2)ccc1[C@@H]1c2ccc3[nH]ncc3c2C[C@@H](C)N1CC1(F)CC1	0.92
C[C@@H]1Cc2c(ccc3[nH]nc(F)c23)[C@@H](c2cnc(NC3CN(CCCF)C3)cn2)N1CC(F)(F)F	-0.16
C[C@@H]1Cc2c(ccc3[nH]ncc23)[C@@H](c2ccc(NC3CN(CCCF)C3)c(F)c2)N1CC(F)(F)F	0.38
C[C@@H]1Cc2c(ccc3[nH]ncc23)[C@@](C)(c2ccc(NC3CN(CCCF)C3)cn2)N1CC(F)F	0.98
C[C@@H]1Cc2c(ccc3[nH]ncc23)[C@@H](c2c(F)cc(NC3CN(CCCF)C3)cc2F)N1CC1(F)CC1	1.30
CC1(C)Cc2c(ccc3[nH]ncc23)[C@@H](c2ccc(NC3CN(CCCF)C3)cn2)N1CC(F)F	0.53
COc1cc(NC2CN(CCCF)C2)ccc1[C@]1(C)c2ccc3[nH]ncc3c2C[C@@H](C)N1CC(F)F	0.20

====

PROCEDURE_TEXT: Thermodynamic solubility (shake-flask)
Type: physicochemical
CONDITION_SET: aqueous phosphate buffer, 25 °C, pH 7.4, aqueous buffer, thermodynamic from solid, aqueous phosphate buffer pH 7.4, 24 hours

COMPOUND_STRUCTURE	RESULT_QUALIFIER	solubility at 24 h / µM
C[C@@H]1Cc2c(ccc3[nH]ncc23)[C@@H](c2c(F)cc(NC3CN(CCCF)C3)cc2F)N1CC(F)F	=	163
C[C@@H]1Cc2c(ccc3[nH]ncc23)[C@@H](c2c(F)cc(NC3CN(CCCF)C3)cc2F)N1CC1(F)CC1	=	186
C[C@@H]1Cc2c(ccc3[nH]ncc23)[C@@H](c2ncc(OC3CN(CCCF)C3)cc2F)N1CC(F)(F)CO	=	971
C[C@@H]1Cc2c(ccc3[nH]ncc23)[C@@H](c2ccc(NC3CN(CCCF)C3)nc2)N1CC1(F)CC1	>	1000
